system: Staphylococcus aureus; test: In vitro inhibitory activity in iso sensitest agar against Staphylococcus aureus strain ATCC 29213; assay type: functional
Measure name: log10 MIC (log10 of the value in µg/mL)

[[record]]
compound = "CC(C)CC(=O)C(=O)NCCc1cn(-c2ccccc2)c2ccccc12"
experimental_value = -1.22

[[record]]
compound = "CCC(C)C(=O)C(=O)NCCc1c[nH]c2ccccc12 (centres undefined)"
experimental_value = -0.90

[[record]]
compound = "CCC(C)C(=O)C(=O)NCCc1cn(Cc2ccccc2)c2ccccc12 (centres undefined)"
experimental_value = -0.90

[[record]]
compound = "CC(C)CC(=O)C(=O)NCCc1cn(C)c2ccccc12"
experimental_value = -1.52

[[record]]
compound = "CCC(C)C(=O)C(=O)NCCc1cn(C(C)C)c2ccccc12 (centres undefined)"
experimental_value = -1.52

[[record]]
compound = "CC(C)CC(=O)C(=O)NCCc1c[nH]c2ccccc12"
experimental_value = -0.60

[[record]]
compound = "CC(C)CC(=O)C(=O)NCCc1cn(Cc2ccccc2)c2ccccc12"
experimental_value = 0.30

[[record]]
compound = "CC(C)CC(=O)C(=O)NCCc1cn(C(C)C)c2ccccc12"
experimental_value = -0.60

[[record]]
compound = "CCC(C)C(=O)C(=O)NCCc1cn(C)c2ccccc12 (centres undefined)"
experimental_value = -1.82

